# IC50 per record follows
test_system: farnesyl protein transferase (Homo sapiens, UniProt P49354+P49356)
assay_notes: FPT IC50 (inhibition of farnesyl protein transferase, in vitro enzyme assay)
Method: FPT IC50 (inhibition of farnesyl protein transferase, in vitro enzyme assay), COS Cell IC50 (Cell-Based Assay), GGPT IC50 (inhibition of geranylgeranyl protein transferase, in vitro enzyme assay), Cell Mat Assay, and anti-tumor activity (in vivo anti-tumor studies) are determined by the assay procedures described in WO 95/10516.
Answer with a number only, understood to be in nM.

Answered cases to consult:
[
  {
    "molecule": "O=C1NC[C@@H](C(=O)N2CCC(CC(=O)N3CCC([C@H]4c5ncc(Br)cc5CCc5cc(Cl)cc(Br)c54)CC3)CC2)N1 [Example 4]",
    "test_system": "farnesyl protein transferase (Homo sapiens, UniProt P49354+P49356)",
    "IC50, nM": 1.8
  },
  {
    "molecule": "O=C1NCC(CC(=O)N2CCC(C3c4ncc(Br)cc4CCc4cc(Cl)cc(Br)c43)CC2)CO1 (stereo not shown) [Example 2]",
    "test_system": "farnesyl protein transferase (Homo sapiens, UniProt P49354+P49356)",
    "IC50, nM": 3.98
  },
  {
    "molecule": "O=C1N[C@H](C(=O)N2CCC(CC(=O)N3CCC([C@H]4c5ncc(Br)cc5CCc5cc(Cl)cc(Br)c54)CC3)CC2)CO1 [Example 3]",
    "test_system": "farnesyl protein transferase (Homo sapiens, UniProt P49354+P49356)",
    "IC50, nM": 2.3
  }
]

Shift focus to the following entry.
Query string: // lookup IC50 for O=C1NCC(CC(=O)N2CCC(C3c4ncc(Br)cc4CCc4cc(Cl)cc(Cl)c43)CC2)CO1 (stereo not shown) [Example 1]
Result string: 15
